- experimental.target: Induced myeloid leukemia cell differentiation protein Mcl-1 (Homo sapiens, UniProt Q07820)
- Sequence (Q07820 whole entry): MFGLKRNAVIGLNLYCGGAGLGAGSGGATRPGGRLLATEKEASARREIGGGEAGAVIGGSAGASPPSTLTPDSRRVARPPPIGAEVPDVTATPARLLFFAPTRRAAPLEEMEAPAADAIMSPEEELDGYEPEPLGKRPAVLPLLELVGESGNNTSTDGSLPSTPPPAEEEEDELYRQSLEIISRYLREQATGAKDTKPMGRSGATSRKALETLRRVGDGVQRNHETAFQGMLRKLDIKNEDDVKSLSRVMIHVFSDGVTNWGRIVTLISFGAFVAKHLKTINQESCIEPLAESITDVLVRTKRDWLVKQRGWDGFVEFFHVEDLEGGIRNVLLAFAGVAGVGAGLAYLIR
- Type: functional
Active and inactive are the calls of the source.
observable: IC50

CCC1=NNc2cccc3c(OC)ccc1c23
8.79 µM (not active)
Cc1ccc(-n2nc(C)cc2NC(=O)COc2cc(C)cc3oc(=O)c4c(c23)CCC4)cc1
< 0.4 µM (not active)
N[C@@H](Cc1cc(I)c(Oc2ccc(O)c(I)c2)c(I)c1)C(=O)O [LIOTHYRONINE SODIUM]
14.7 µM (active)
CNCc1ccccc1Sc1cc(O)ccc1O
4.5 µM (active)
O=C1CCCC2=C1C(c1ccco1)Nc1ccc3ccccc3c12 (stereo unspecified)
3.2 µM (active)

Turning now to a further compound:
What value of IC50 has been reported for the following compound? NC(=S)n1[nH]c(-c2ccc([N+](=O)[O-])cc2)c(/N=N/c2ccc(O)cc2)c1=O
3.47 µM (active)

---

- experimental.target: Prothrombin (Bos taurus)
- test.name: thrombin inhibition, dose response, biochemical, fluorescence polarization, uHTS hits (AID 602369)
- Assay type: functional
The source made the active and inactive calls.
Assign a class; possible classes are active, inactive

Please review the following examples before continuing.
CCc1ccc(OCC(=O)NNC(=O)c2cc(S(=O)(=O)N(C)C)ccc2N2CCCC2)cc1
inactive
COC(=O)c1c(-c2cccnc2)csc1NC(=O)c1cc(C)on1
active
O=[N+]([O-])c1ccc(N/N=C/c2c[nH]c3ccccc23)cc1
active

We now examine a further molecule.
Hi, do you know how C=Cc1ccc(Cn2c(C(=O)O)c(C=O)c3ccccc32)cc1 came out in this test?
active

---

- test.name: inhibitors of clade B AD8 Env fusion, dose response, cell-based, cherry-pick (AID 652062);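 also: luciferase signal from cell-cell fusion driven by HIV-1 clade B AD8 Env; potency is for inhibitors of fusion seen as a drop in luminescence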
- Type: functional
Calls of active or inactive are those of the source.
observable: AC50

COc1ccc(S(=O)(=O)N(C)C[C@@H]2Oc3ccc(NC(=O)Nc4ccc5c(c4)OCO5)cc3C(=O)N([C@H](C)CO)C[C@@H]2C)cc1
3.09 µM (active)
C[C@H](CO)N1C[C@H](C)[C@H](CN(C)S(=O)(=O)c2cccc(C#N)c2)OCc2ccccc2-c2c(n(C)c3ccccc23)C1=O
10.3 µM (active)
CC(=O)C1=C(C)N(Cc2ccc(Cl)cc2)C(=S)NC1c1cccc(Br)c1 (centres undefined)
22.6 µM (active)

Turning now to a further compound:
What value of AC50 has been reported for the following compound? COc1cccc(C#Cc2ccc([C@H]3[C@@H](CO)N(C(=O)C4CCCC4)[C@H]3C#N)cc2)c1
20 µM (active)

---

- experimental.target: 72 kDa type IV collagenase (Homo sapiens)
- Sequence (P08253 whole entry): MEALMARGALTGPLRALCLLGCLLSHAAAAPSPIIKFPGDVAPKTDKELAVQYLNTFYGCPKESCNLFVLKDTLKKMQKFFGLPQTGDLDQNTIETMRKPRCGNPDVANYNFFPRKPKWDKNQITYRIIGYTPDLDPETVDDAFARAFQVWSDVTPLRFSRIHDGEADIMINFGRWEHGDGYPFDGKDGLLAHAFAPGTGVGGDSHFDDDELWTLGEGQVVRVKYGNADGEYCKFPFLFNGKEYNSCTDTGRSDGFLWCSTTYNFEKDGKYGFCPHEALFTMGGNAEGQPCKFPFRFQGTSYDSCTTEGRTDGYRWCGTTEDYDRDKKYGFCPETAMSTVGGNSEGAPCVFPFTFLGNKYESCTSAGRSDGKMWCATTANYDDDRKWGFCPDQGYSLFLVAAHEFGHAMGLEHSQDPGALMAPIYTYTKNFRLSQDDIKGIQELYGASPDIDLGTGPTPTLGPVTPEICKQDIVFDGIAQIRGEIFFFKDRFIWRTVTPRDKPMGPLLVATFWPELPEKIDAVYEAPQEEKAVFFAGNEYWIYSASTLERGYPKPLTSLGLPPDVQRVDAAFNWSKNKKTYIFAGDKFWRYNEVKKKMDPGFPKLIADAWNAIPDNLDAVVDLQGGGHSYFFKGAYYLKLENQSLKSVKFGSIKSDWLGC
- test.name: Dose Response validation of uHTS RPN11 inhibitor hits using a MMP-2 Fluorescence assay.
- Format: functional
Active and inactive are the calls of the source.
Assign a class; possible classes are active, inactive

Hi, do you know how C=Cc1ccc(Cn2c(C(=O)O)c(C=O)c3ccccc32)cc1 came out in this test?
inactive

Hi, do you know how O=[N+]([O-])c1ccc(N/N=C/c2c[nH]c3ccccc23)cc1 came out in this test?
inactive

Hi, do you know how CCc1ccc(OCC(=O)NNC(=O)c2cc(S(=O)(=O)N(C)C)ccc2N2CCCC2)cc1 came out in this test?
active

Hi, do you know how COC(=O)c1c(-c2cccnc2)csc1NC(=O)c1cc(C)on1 came out in this test?
inactive

---

- experimental.target: Trace amine-associated receptor 1 (Homo sapiens);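 also: inhibition of calcium response to PEA at EC80 in Galpha16 coupled cells measured by Fluo-8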
- Sequence (Q96RJ0 whole entry): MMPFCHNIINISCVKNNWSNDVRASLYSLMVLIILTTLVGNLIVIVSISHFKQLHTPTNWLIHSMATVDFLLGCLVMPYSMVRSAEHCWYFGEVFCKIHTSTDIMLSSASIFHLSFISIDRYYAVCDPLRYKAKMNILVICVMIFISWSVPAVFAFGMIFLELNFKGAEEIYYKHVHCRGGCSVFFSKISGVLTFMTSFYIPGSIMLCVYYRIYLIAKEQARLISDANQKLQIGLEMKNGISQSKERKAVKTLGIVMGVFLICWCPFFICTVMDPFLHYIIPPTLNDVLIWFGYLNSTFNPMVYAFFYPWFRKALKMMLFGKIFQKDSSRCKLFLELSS
- test.name: Counterscreen for agonists of the human trace amine associated receptor 1 (hTAAR1): Fluorescence-based cell-based high throughput dose response assay to identify hTAAR1 agonist that also desensitize TAAR1 receptor response.
- Assay type: functional
Activity calls are given as the source filed them.
observable: IC50

Observe how each entry below is paired with its result.
Nc1sc2c(c1C(=O)NCCc1ccccc1)CCC2
9.93 µM (active)
Clc1cccc2c3c([nH]c12)CCNC3
22.1 µM (inactive)
Cc1oc(-c2ccccc2Cl)nc1CS(=O)(=O)CC(=O)NCCc1ccccc1
8.19 µM (active)

Turning now to a further compound:
What value of IC50 has been reported for the following compound? CN(CCc1ccccc1)C(C(=O)c1ccc2c(c1)OCO2)c1nnnn1-c1ccccc1NC(=O)OC(C)(C)C (centres undefined)
3.26 µM (active)

---

- test.name: cytotoxicity in HEK-293T cells, dose response, cytotoxicity control for TCR NF-kB inhibitor project, luminescence, T-cell screen hits (AID 489026);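 also: cells exposed to compound about 14 hours before the viability readout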
- Format: functional, cell-based
Activity calls are given as the source filed them.
Assign a class; possible classes are active, inactive

Please review the following examples before continuing.
COc1ccc(NC(=O)C(=O)NCC2CCCN2S(=O)(=O)c2ccc(C)cc2)cc1 (centres undefined)
inactive
Cc1cccc(N(C)S(=O)(=O)c2ccc(-c3cnc(C4CC4)o3)cc2)c1
inactive
Cc1noc(C)c1COc1ccc(C(=O)NNC(=O)c2ccccc2F)cc1
inactive

We now examine a further compound.
Hi, do you know how Cc1ccccc1NC1=C/C(=N\S(=O)(=O)c2cccs2)c2ccccc2C1=O came out in this test?
active

---

- test.name: inhibitors of firefly luciferase expression or activity, dose response, H4 neuroglioma cells, luminescence (AID 1990)
- Assay type: functional, cell-based
Calls of active or inactive are those of the source.
Answer each item with its documented EC50.

Can you give me EC50 for all of these, one by one?
1. Cc1ccc(CSc2nc3ccccc3cc2C=O)cc1
2. CCn1cc(C(=O)NCc2ccco2)c(=O)c2cc(S(=O)(=O)N3CC(C)CC(C)C3)ccc21 (centres undefined)
3. Cc1nc2cc(-c3ccccc3)nn2c(C)c1CCC(=O)N1CCC2(CC1)OCCO2
4. COc1cc(NC(=O)Cn2ncc(Cl)c(Cl)c2=O)c(C)cc1[N+](=O)[O-]

1. > 120 µM (not active)
2. 9.5 µM (active)
3. < 0.1 µM (active)
4. 8.09 µM (active)

---

Answer each item with its documented AC50.
- test.name: cytotoxicity in OVCAR8 ovarian cancer cells, dose response, PAX8 project, cell-based, plate reader, dry powder samples (AID 743197)
- Type: functional
- condition.summary: OVCAR-8
Active and inactive are the calls of the source.

Observe how each entry below is paired with its result.
COc1ccccc1C#Cc1ccc([C@H]2[C@H](C#N)N(C(=O)C3CC3)[C@H]2CO)cc1
10.7 µM (active)
CN(C[C@H]1N[C@@H](CO)[C@@H]1c1ccc(-c2cccc(F)c2)cc1)S(C)(=O)=O
23.7 µM (active)
C[C@H](CO)N1C[C@H](C)[C@@H](CN(C)Cc2ccc(Oc3ccccc3)cc2)Oc2ccc(NS(=O)(=O)c3ccc(F)cc3)cc2CC1=O
63.3 µM (active)

Turning now to a further compound:
What value of AC50 has been reported for the following compound? O=C1CN(S(=O)(=O)Cc2ccccc2)C[C@@H]2[C@@H](c3ccc(C#CC4CC4)cc3)[C@@H](CO)N12
53.1 µM (active)

---

- Test system: BJ
- test.name: cytotoxicity toward BJ-TERT fibroblasts, dose response, cell-based, RAS-independent, luminescence (AID 1933)
- Format: functional
- condition.summary: Homo sapiens
Activity calls are given as the source filed them.
observable: EC50

O=S(=O)(c1ccc(NC(=S)NCc2cccnc2)cc1)N1CCCCC1
> 150 µM (not active)

Can you give me EC50 for all of these, one by one?
1. O=S1(=O)C=C(Sc2nnc(-c3ccccc3)o2)c2ccccc21
2. Cc1ccc(CSc2nc3ccccc3cc2C=O)cc1
3. COc1cc(OC)cc(C(=O)N[C@H](C(=O)Nc2nc3ccccc3[nH]2)C(C)C)c1
4. CCn1cc(C(=O)NCc2ccco2)c(=O)c2cc(S(=O)(=O)N3CC(C)CC(C)C3)ccc21 (stereo not given)

1: 1.48 µM (active); 2: 0.689 µM (active); 3: 1.48 µM (inconclusive); 4: > 150 µM (not active)

---

Answer each item with its documented IC50.
- experimental.target: UniProt:Q8IL11
- Sequence (Q8IL11 whole entry): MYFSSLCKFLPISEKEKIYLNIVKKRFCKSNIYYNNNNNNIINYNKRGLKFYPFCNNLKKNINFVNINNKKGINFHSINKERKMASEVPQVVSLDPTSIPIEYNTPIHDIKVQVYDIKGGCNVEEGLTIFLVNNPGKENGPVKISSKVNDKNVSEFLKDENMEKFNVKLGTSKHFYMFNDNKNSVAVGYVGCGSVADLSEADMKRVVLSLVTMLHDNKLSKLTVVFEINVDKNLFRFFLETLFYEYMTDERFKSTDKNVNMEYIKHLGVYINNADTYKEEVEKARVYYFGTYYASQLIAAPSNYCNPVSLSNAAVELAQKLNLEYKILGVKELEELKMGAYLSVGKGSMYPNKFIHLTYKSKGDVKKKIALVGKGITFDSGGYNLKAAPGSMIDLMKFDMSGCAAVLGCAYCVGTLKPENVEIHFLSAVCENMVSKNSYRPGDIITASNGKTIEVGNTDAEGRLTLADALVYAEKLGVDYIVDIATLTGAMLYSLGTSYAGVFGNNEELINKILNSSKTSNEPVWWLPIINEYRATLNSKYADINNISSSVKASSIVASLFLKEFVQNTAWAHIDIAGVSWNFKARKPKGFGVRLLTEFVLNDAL
- test.name: P. falciparum M17LAP inhibitors, primary screen, biochemical, fluorogenic H-Leu-NHMec substrate, 1536-well (AID 1619)
- Assay type: functional
Activity calls are given as the source filed them.

Observe how each entry below is paired with its result.
CCOc1c(Br)cc(CNc2nc[nH]n2)cc1OC
22.7 µM (active)
CC(C)c1ccc(NC(=O)CSc2ncccc2C(=O)Oc2cccc([N+](=O)[O-])c2)cc1
8.47 µM (active)

Can you give me IC50 for all of these, one by one?
1. O=C1NC(=O)N(Cc2ccccc2)C(=O)/C1=C\c1ccco1
2. N#Cc1c(NC(=O)CSc2nnc[nH]2)sc2c1CCCC2
3. N#C/C(=C\c1ccc(O)c(O)c1)S(=O)(=O)c1ccccc1
4. C=CCN1C=CC(=C/C=C(/C#N)C(=O)OCC)C=C1

1: 62.3 µM (active); 2: 4.79 µM (active); 3: 7.23 µM (active); 4: 72.5 µM (active)

---

Answer each item with its documented EC50.
- Test system: Streptococcus
- test.name: Group A Streptococcus viability loss, dose response, counter-screen for streptokinase expression inhibitor project, luminescence, BacTiterGlo (AID 1915);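 also: potency for reduction of bacterial viability or growth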
- Assay type: functional, organism-based
Active and inactive are the calls of the source.

Observe how each entry below is paired with its result.
Cc1nnc(SCC2=C(C(=O)O)N3C(=O)C(NC(=O)Cn4ncc(Cl)c4C)C3SC2)s1 (configuration not stated)
0.117 µM (active)
CCc1sc(C(=O)Nc2nccs2)cc1C
> 150 µM (not active)

Can you give me EC50 for all of these, one by one?
1. Nc1c(C(=O)Nc2nc3ccccc3s2)sc2nc(-c3cccs3)ccc12
2. CCCN(CCC)c1nc(-c2ccccn2)nc2ccccc12
3. COc1ccc(-n2c(O)cc(=O)nc2SCC(=O)Nc2ccccc2)cc1
4. C[C@]12CCC(O)CC1CCC1C2CC[C@]2(C)C(c3cc(C(F)(F)F)[nH]n3)CCC12 (some centres not stated)
5. Cc1cc(SCC(=O)c2ccc(O)c(O)c2)n2nc(C)c(-c3ccccc3)c2n1

109 µM (active)
1.85 µM (active)
> 150 µM (not active)
3.87 µM (active)
13.9 µM (active)

Source of measurements: ChEMBL document CHEMBL1201862
